Just for reference, patent EP3807270B1 is where these values come from.

- EXPERIMENTAL SYSTEM: human TLR8 (Homo sapiens)
- Sequence (Q9NR97 27-1041): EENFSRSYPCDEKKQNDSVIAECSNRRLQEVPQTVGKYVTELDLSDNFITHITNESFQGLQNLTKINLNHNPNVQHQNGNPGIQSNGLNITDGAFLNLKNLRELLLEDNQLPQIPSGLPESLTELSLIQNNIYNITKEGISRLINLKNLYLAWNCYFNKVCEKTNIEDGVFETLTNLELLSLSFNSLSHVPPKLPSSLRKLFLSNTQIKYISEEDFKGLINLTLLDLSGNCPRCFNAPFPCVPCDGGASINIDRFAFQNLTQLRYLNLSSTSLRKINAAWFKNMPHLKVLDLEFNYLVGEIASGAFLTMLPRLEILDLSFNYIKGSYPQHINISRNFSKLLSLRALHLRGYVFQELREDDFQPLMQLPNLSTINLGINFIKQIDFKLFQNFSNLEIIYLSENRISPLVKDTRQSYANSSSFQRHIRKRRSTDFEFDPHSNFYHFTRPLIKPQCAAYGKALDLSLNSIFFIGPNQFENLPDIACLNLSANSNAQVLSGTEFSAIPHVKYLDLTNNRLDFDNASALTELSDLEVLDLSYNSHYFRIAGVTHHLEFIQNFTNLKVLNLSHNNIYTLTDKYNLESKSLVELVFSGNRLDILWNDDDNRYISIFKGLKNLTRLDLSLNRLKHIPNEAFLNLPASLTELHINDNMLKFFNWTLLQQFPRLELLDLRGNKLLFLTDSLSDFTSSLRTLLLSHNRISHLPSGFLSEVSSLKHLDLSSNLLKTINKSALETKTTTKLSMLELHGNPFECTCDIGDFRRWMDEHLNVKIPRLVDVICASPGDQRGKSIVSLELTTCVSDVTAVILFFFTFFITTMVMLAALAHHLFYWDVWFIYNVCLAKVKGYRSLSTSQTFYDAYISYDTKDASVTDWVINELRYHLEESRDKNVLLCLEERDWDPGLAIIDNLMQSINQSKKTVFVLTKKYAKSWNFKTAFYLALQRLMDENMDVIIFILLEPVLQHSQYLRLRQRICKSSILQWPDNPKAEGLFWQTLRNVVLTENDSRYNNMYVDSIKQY
- METHOD DESCRIPTION: HEK293-Blue-hTLR-8 cells assay (SEAP reporter, R848 stimulation)
- STUDY CONDITIONS: HEK293-Blue-hTLR8 cells, R848, 20 hrs; read-out: HEK/hTLR8 IC50
pIC50: −log10 of the molar value.
EXPERIMENTAL READOUT: pIC50

Solved entries (count: 5):
In [3]: df
Out[3]:
                                   compound        experimental_system  experimental_readout  reported
0  C[C@@H]1Cc2cnc(N3CCN(C[C@H]4CN(c5ccc(C#N)c6nccnc56)C[C@@H](C)O4)CC3)cc2CN1 (single isomer, unassigned) [Example 82]  human TLR8 (Homo sapiens)                 pIC50      8.52
1  C[C@@H]1CN(c2ccc(C#N)c3ncccc23)C[C@H](CN2CCN(c3cc4c(cn3)[C@@H](C)NCC4)CC2)O1 (single isomer, unassigned) [Example 73]  human TLR8 (Homo sapiens)                 pIC50      8.15
2  C[C@@H]1CN(c2ccc(C#N)c3ncccc23)C[C@H](CN2CC3(CCN3c3ccc4c(n3)CCNC4)C2)O1 [Example 36]  human TLR8 (Homo sapiens)                 pIC50      7.37
3  C[C@@H]1CN(c2ccc(C#N)c3ncccc23)C[C@H](CN2CCN(c3cnc4c(n3)CCNC4)CC2)O1 [Example 17]  human TLR8 (Homo sapiens)                 pIC50      8.40
4  C[C@@H]1CN(c2ccc(C#N)c3ncccc23)C[C@H](CN2CCN(c3cccc4c3CNC4)CC2)O1 [Example 2]  human TLR8 (Homo sapiens)                 pIC50      8.10

I. C[C@@H]1CN(c2ccc(C#N)c3ncccc23)C[C@H](CN2CCN(c3ccc4c(n3)CNC4)CC2)O1 [Example 30]
II. C[C@@H]1CN(c2ccc(C#N)c3ncccc23)C[C@H](CN2CC3(C2)CN(c2ccc4c(c2)CCNC4)CCO3)O1 [Example 44]
III. CC1NCc2cc(N3CCN(C[C@H]4CN(c5ccc(C#N)c6ncccc56)C[C@@H](C)O4)CC3)ccc21 (stereo partly shown) [Example 28]
IV. C[C@@H]1CN(c2ccc(C#N)c3nccnc23)C[C@H](CN2CCN(c3cc4c(cn3)CCN[C@H]4C)CC2)O1 (single isomer, unassigned) [Example 88]
V. C[C@@H]1CN(c2ccc(C#N)c3ncccc23)C[C@H](CN2CCN(c3ccc4c(n3)CCNC4)C[C@@H](O)C2)O1 (single isomer, unassigned) [Example 35B]
## Input Place the items in sequence of falling pIC50. Order the labels as requested and give them as your answer.
## Output IV, II, I, III, V
(IV: 8.70, II: 8.40, I: 8.15, III: 7.89, V: 7.64)

* * *

- EXPERIMENTAL SYSTEM: hTLR9 (Homo sapiens, UniProt Q9NR96)
- Sequence (Q9NR96 26-1032): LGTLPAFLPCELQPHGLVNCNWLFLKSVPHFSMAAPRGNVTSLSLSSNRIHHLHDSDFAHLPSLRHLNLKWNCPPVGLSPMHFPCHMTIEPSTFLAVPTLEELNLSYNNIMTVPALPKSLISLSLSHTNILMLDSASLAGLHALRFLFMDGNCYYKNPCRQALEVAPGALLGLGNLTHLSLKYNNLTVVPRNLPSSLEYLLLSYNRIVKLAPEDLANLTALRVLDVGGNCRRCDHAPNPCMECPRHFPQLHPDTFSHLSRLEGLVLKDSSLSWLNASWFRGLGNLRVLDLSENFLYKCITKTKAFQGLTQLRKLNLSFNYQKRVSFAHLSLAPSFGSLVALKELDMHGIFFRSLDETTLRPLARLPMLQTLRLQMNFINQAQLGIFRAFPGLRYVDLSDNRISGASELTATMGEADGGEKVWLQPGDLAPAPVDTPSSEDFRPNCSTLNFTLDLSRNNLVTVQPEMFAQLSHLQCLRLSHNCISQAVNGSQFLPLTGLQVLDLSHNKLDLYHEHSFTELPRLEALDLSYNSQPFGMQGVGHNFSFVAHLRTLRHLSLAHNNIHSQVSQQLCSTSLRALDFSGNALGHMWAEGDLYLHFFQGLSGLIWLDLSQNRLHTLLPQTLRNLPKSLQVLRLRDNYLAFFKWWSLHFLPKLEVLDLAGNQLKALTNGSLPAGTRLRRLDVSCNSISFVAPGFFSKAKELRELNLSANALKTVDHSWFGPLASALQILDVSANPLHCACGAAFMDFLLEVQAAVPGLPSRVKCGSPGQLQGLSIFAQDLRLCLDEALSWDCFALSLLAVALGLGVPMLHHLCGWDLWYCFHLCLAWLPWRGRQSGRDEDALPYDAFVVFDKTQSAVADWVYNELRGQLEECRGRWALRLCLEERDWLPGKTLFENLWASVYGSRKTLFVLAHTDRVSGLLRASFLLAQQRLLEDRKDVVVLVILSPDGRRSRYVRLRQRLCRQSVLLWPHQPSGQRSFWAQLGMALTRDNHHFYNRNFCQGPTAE
- METHOD DESCRIPTION: HEK293-Blue-hTLR-9 cells assay (SEAP reporter, ODN2006 stimulation)
- Format: cell-based
- Parameters: host or cells: HEK293 (HEK-Blue)
- STUDY CONDITIONS: HEK293-Blue-hTLR9 cells, ODN2006, 20 hrs; read-out: HEK/hTLR9 IC50
EXPERIMENTAL READOUT: IC50 (µM)

Below, each entry is followed by its recorded IC50 result.
>>> print(df.to_string())
                                   compound  reported
0  C[C@@H]1CN(c2ccc(C#N)c3nccnc23)C[C@H](CN2CCN(c3cc4c(cn3)[C@@H](C)NCC4)CC2)O1 (single isomer, unassigned) [Example 86]     0.117
1  C[C@@H]1CN(c2ccc(C#N)c3nccnc23)C[C@H](CN2CCN(c3cc4c(cn3)C[C@H](C)NC4)CC2)O1 (single isomer, unassigned) [Example 81]     0.096
2  C[C@@H]1CN(c2ccc(C#N)c3ncccc23)C[C@H](CN2CCCN(c3ncc4c(n3)CCNC4)CC2)O1 [Example 39]      0.09
3  C[C@@H]1CN(c2ccc(C#N)c3ncsc23)C[C@H](CN2CCN(c3cnc4c(c3)CNC4)CC2)O1 [Example 8]     0.048
4  C[C@@H]1CN(c2ccc(C#N)c3ncccc23)C[C@H](CN2CC3(C2)CN(c2ncc4c(n2)CCNC4)CCO3)O1 [Example 51]     0.134
5  C[C@@H]1CN(c2ccc(C#N)c3ncccc23)C[C@H](CN2CCN(c3cccc4c3CNC4)CC2)O1 [Example 2]     0.058
6  C[C@@H]1CN(c2ccc(C#N)c3ncccc23)C[C@H](CN2CCCN(c3nc4c(s3)CNCC4)CC2)O1 [Example 33]      0.09
7  C[C@@H]1CN(c2ccc(C#N)c3nccnc23)C[C@H](CN2CCN(c3cc4c(cn3)CCN[C@H]4C)CC2)O1 (single isomer, unassigned) [Example 88]     0.073

I. C[C@@H]1CN(c2ccc(C#N)c3ncccc23)C[C@H](CN2CC3(C2)CN(c2cnc4c(c2)CNCC4)CCO3)O1 [Example 47]
II. C[C@@H]1CN(c2ccc(C#N)c3ncccc23)C[C@H](CN2CCC(Nc3ncc4c(n3)CCNC4)C2)O1 (stereo partly shown) [Example 57]
III. C[C@@H]1CN(c2ccc(C#N)c3ncccc23)C[C@H](CN2CCN(c3ccc4c(n3)[C@H](C)NC4)CC2)O1 (single isomer, unassigned) [Example 66]
## Input Please list these compounds in decreasing order of IC50. I'd appreciate it if you listed the labels in the requested order.
## Output III, I, II

* * *

- METHOD DESCRIPTION: Human microsome stability assay
- Format: in vitro ADME
- STUDY CONDITIONS: 1 µM test compound, 0.5 mg/mL liver microsomal protein, 37 °C
EXPERIMENTAL READOUT: Clearance of Human microsome (mL/min/kg)

Examples with answers:
>>> print(df.to_string())
                                   compound  reported
0  C[C@@H]1CN(c2ccc(C#N)c3ncccc23)C[C@H](CN2CCN(c3ccc4c(n3)CNCC4)CC2)O1      6.23
1  C[C@@H]1Cc2cc(N3CCN(C[C@H]4CN(c5ccc(C#N)c6nccnc56)C[C@@H](C)O4)CC3)ncc2CN1 (single isomer, unassigned)      8.31
2  C[C@@H]1CN(c2ccc(C#N)c3ncnn23)C[C@H](CN2CCN(c3cnc4c(c3)CNCC4)CC2)O1      7.28
3  C[C@@H]1CN(c2ccc(C#N)c3nccnc23)C[C@H](CN2CCN(c3ccc4c(n3)CN[C@H]4C)CC2)O1 (single isomer, unassigned)      7.50
4  C[C@@H]1CN(c2ccc(C#N)c3ncccc23)C[C@H](CN2CCN(c3cnc4c(c3)CN[C@H]4C)CC2)O1 (single isomer, unassigned)      6.15

I. [2H]c1ccc2c(N3C[C@H](CN4CCN(c5ccc6c(n5)CN[C@H]6C)CC4)O[C@H](C)C3)ccc(C#N)c2n1 (single isomer, unassigned)
II. C[C@@H]1CN(c2ccc(C#N)c3ncccc23)C[C@H](CN2CCN(c3ccccc3)CC2)O1 [ER-887258, reference compound]
## Input // pick larger Clearance of Human microsome from pair: I vs II Please indicate the selected item by its label.
## Output II
(II: 17.86 mL/min/kg, I: 6.32 mL/min/kg)

* * *

- EXPERIMENTAL SYSTEM: hTLR9 (Homo sapiens)
- METHOD DESCRIPTION: HEK293-Blue-hTLR-9 cells assay (SEAP reporter, ODN2006 stimulation)
- Assay type: cell-based
- Design: host or cells: HEK293 (HEK-Blue)
- STUDY CONDITIONS: HEK293-Blue-hTLR9 cells, ODN2006, 20 hrs; read-out: HEK/hTLR9 IC50
EXPERIMENTAL READOUT: IC50 (nM)

                                   compound   experimental_system  reported
0  C[C@@H]1CN(c2ccc(C#N)c3ncccc23)C[C@H](CN2CCN(c3ccc4c(n3)CCNC4)C[C@H](O)C2)O1 (single isomer, unassigned) [Example 35A]  hTLR9 (Homo sapiens)       147

1. [2H]c1ccc2c(N3C[C@H](CN4CCN(c5ccc6c(n5)CN[C@H]6C)CC4)O[C@H](C)C3)ccc(C#N)c2n1 (single isomer, unassigned)
2. C[C@@H]1CN(c2ccc(C#N)c3ncccc23)C[C@H](CN2CCN(c3cnc4c(n3)CNCC4)CC2)O1
## Input Compare the recorded IC50 of 1 and 2 ; state which is larger. Write down the label of the entry you select.
## Output 2

I. C[C@@H]1CN(c2ccc(C#N)c3ncccc23)C[C@H](CN2CCN(c3ccc4c(c3)CNC4)CC2)O1
II. C[C@@H]1CN(c2ccc(C#N)c3ncccc23)C[C@H](CN2CCN(c3ncc4c(n3)CNCC4)CC2)O1
III. C[C@@H]1CN(c2ccc(C#N)c3ncccc23)C[C@H](CN2CC3(CCN3c3ccc4c(n3)CCNC4)C2)O1
IV. C[C@@H]1CN(c2ccc(C#N)c3ncccc23)C[C@H](CN2CCN(c3ncc4c(n3)CNC4)CC2)O1
## Input Your job: order these 4 records by IC50, ascending. Submit the labels in the order that the ranking request calls for.
## Output III, I, II, IV
(III: 45 nM, I: 89 nM, II: 143 nM, IV: 252 nM)

a. [2H]c1nc2c(C#N)ccc(N3C[C@H](CN4CCN(c5ccc6c(n5)CN[C@@H]6C)CC4)O[C@H](C)C3)c2nc1[2H] (single isomer, unassigned)
b. C[C@@H]1CN(c2ccc(C#N)c3ncccc23)C[C@H](CN2CCN(c3ccc4c(c3)CCNC4CO)CC2)O1 (stereo partly shown)
c. C[C@@H]1CN(c2ccc(C#N)c3ncccc23)C[C@H](CN2CCN(c3cc4c(cn3)CCN[C@H]4C)CC2)O1 (single isomer, unassigned)
## Input # ascending order, key=IC50 Please respond with the labels ordered as the question requires.
## Output b, c, a
